Origin of measurements: patent US20140120095A1

- Tested System: T1, recombinant human DLL4 (C-terminally His-tagged extracellular domain, R&D Systems) (human, UniProt Q9NR61 25-522, biotinylated in the competition ELISA)
- T1 construct: also called rhDLL4; hDLL4
- T1 sequence (Q9NR61 25-522): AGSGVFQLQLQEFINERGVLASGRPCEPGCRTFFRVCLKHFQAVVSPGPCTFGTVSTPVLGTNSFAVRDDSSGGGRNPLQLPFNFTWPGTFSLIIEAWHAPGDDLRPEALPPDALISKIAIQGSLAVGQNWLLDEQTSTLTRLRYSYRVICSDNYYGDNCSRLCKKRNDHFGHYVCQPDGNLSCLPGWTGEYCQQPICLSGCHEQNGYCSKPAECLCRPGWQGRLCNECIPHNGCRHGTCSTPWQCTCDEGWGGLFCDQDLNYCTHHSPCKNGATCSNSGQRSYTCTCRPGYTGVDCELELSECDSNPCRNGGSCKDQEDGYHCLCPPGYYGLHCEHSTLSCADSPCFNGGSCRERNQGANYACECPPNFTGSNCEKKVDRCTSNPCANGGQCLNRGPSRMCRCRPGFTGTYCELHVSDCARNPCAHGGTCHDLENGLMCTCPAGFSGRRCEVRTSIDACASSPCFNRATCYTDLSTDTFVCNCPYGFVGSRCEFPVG
- Assay Name: SPR (Biacore), rhDLL4
Quantity: log10 koff (log10 of the value in s⁻¹)

| Binder | Endpoint Result |
| --- | --- |
| DLLBII129H07 (VHH, not shown: small tags and cut ends) VHH: EVQLVESGGGLVQAGGSLRLSCAASGRTFSSYAMAWYRQAPGKEREYVAAIRWSGGTAYYADSVQGRFTISRDNAKNTVYLQMNSLKPEDTAVYYCANRAPDTRLEPYEYDYWGQGTQVTVSS | -4.14 |
| DLLBII136C07 (VHH, not shown: small tags and cut ends) VHH: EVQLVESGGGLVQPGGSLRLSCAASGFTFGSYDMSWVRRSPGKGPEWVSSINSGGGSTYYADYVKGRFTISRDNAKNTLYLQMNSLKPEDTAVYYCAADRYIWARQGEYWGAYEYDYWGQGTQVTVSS | -3.41 |
| DLLBII133A09 (VHH, not shown: small tags and cut ends) VHH: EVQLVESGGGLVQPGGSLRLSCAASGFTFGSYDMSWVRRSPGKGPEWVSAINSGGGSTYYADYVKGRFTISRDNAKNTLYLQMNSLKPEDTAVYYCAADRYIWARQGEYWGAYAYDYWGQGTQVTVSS | -3.05 |
| DLLBII101G08 (VHH, not shown: small tags and cut ends, parent VHH; also called 101G08 (wt); 101G8) VHH: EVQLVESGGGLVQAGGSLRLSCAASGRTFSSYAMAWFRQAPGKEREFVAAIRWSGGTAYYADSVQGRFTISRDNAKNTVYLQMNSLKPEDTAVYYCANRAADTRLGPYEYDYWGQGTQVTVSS | -2.64 |
| DLLBII129A03 (VHH, not shown: small tags and cut ends) VHH: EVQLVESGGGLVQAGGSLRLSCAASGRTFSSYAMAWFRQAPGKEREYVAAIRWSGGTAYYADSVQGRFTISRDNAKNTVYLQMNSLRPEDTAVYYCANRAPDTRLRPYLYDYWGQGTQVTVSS | -3.92 |
| DLLBII129D08 (VHH, not shown: small tags and cut ends) VHH: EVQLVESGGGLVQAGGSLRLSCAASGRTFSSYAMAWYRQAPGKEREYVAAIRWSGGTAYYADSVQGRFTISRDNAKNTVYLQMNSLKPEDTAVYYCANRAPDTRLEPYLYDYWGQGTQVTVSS | -4.19 |
| DLLBII130F06 (VHH, not shown: small tags and cut ends) VHH: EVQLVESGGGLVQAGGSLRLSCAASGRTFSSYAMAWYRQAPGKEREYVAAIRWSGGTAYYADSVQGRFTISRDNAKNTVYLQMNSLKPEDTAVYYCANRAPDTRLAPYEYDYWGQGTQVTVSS | -4.10 |
| DLLBII129E11 (VHH, not shown: small tags and cut ends) VHH: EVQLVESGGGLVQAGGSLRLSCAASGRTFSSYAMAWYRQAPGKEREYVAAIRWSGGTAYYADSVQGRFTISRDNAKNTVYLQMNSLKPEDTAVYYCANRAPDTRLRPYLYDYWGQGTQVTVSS | -4.05 |
